tested on: PPARγ; test: PPARγ mRNA expression in adipocytes (real-time PCR); assay type: cell-based, human; conditions: Table 18; differentiating adipocytes; control = treatment with ISIS 342673
In the oligonucleotide strings, read from the 5' end, every base follows the letter of its sugar. An asterisk marks phosphorothioate; unmarked linkages are phosphodiester. Other units and linkages are bracketed, terminal groups are in braces. A string of capitals states the bases alone. e = 2'-O-(2-methoxyethyl) (MOE); [5mC] = 5-methylcytosine
Record form. Attribute: PPAR gamma mRNA. Fill in for each entry.

Given item 328111 (antisense eT*e[5mC]*e[5mC]*eG*eA*eG*eT*e[5mC]*eG*eG*eA*eG*eG*eA*eG*eG*eA*eG*eG*eA*eA) [compound 328111] , the value recorded as its PPAR gamma mRNA is 74.9 percentage of control

# substance 328104 (antisense eT*eA*eT*eG*eA*eT*eA*eG*e[5mC]*eT*eT*e[5mC]*e[5mC]*e[5mC]*e[5mC]*eA*eT*eG*eT*eA*eA) [compound 328104] ; its PPAR gamma mRNA = 90.4 percentage of control

PPAR gamma mRNA measured on 328109 (antisense eA*eA*eA*eG*eA*eA*eG*eT*eA*eT*eA*eT*eG*e[5mC]*eA*eT*eA*eG*eG*eA*eA) [compound 328109] = 96.1 percentage of control

For this substance ( 328112 (antisense eA*eT*e[5mC]*eA*eT*eT*eA*e[5mC]*eT*eG*eG*eA*eT*eT*eG*e[5mC]*eT*eG*eT*eA*eA) [compound 328112] ), measured PPAR gamma mRNA is 102.4 percentage of control

For 328099 (antisense eA*eA*eG*eA*eA*e[5mC]*eA*eT*eT*eA*eA*eG*e[5mC]*eA*eT*e[5mC]*eT*eG*eA*e[5mC]*eA) [compound 328099] the substance record lists PPAR gamma mRNA as 81.9 percentage of control

Sample 328108 (antisense eA*eA*eA*e[5mC]*eT*eT*eG*eT*eT*eA*eA*eT*eT*eG*eA*e[5mC]*eT*eG*eT*e[5mC]*eA) [compound 328108] ; PPAR gamma mRNA observed: 84.0 percentage of control
